targetUnderTest: EGFR (tyrosine 1173 phosphorylation) in Lung Cancer Cell Line A459 (Homo sapiens)
Construct: endogenous in cells
Sequence (P00533 25-1210): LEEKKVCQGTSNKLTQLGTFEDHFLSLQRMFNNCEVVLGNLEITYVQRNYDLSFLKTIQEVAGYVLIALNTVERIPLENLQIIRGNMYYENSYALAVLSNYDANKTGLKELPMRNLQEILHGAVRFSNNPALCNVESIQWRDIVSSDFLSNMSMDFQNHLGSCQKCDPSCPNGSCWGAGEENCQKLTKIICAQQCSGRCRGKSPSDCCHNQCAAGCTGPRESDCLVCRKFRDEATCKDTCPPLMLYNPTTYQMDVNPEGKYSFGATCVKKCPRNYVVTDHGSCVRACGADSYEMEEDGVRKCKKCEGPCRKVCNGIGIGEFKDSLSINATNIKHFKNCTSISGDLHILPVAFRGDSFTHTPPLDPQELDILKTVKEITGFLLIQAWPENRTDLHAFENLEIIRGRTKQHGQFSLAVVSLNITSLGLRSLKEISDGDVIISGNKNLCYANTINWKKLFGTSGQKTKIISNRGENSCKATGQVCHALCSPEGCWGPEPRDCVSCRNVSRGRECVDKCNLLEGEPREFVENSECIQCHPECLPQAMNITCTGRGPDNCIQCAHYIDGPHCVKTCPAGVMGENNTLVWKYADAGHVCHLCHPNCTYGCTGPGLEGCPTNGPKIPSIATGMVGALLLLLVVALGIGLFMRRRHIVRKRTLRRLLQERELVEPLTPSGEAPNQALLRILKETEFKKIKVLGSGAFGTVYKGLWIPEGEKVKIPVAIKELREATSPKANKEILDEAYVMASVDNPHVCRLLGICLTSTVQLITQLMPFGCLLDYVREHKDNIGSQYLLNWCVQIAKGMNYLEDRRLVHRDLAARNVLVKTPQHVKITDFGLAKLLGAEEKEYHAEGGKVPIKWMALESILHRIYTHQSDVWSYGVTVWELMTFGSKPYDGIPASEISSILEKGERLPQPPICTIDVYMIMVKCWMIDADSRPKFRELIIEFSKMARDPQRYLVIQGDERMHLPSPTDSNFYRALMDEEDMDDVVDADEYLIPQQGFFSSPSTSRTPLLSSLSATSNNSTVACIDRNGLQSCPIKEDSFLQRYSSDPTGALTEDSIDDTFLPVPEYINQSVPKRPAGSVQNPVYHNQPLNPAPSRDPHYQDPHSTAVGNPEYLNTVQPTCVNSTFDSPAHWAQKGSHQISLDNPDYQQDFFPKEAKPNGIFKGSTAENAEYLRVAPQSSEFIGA
assayName: EGFR Autophosphorylation Inhibition Assay in Lung Cancer Cell Line A459
Type: cell-based
testContext: EGF-induced phosphorylation of tyrosine 1173
pIC50: −log10 of the molar value.
Here the recorded pIC50 is given for each entry.

Worked set:
                                inputsmiles  valueobserved
0  COc1cccc(-c2cc3c(Oc4cccc(Br)c4)ncnc3[nH]2)c1   5.00 to 6.00
1  Oc1ccc(-c2cc3c(Sc4ccc(F)cc4)ncnc3[nH]2)cc1   5.00 to 6.00
2     Clc1ccc(Sc2ncnc3c2[nH]c2ccccc23)cc1Cl   6.00 to 7.00

Please find the next compound below.
Retrieve pIC50 measured for Cc1ccc(Sc2ncnc3[nH]c(-c4ccc(O)cc4)cc23)cc1 and print it.
5.00 to 6.00

###

// endpoint Kd / system human EGFR (wildtype), EGFR(DKIN) (Homo sapiens)

Worked set:
>>> print(df.to_string())
                                   compound  experimentalreadout   valueobserved
0  COc1ccc(-c2cc3c(Sc4ccccc4)ncnc3[nH]2)cc1 [Compound J16]                   Kd  100 to 1000 nM
1  COc1cccc(-c2cc3c(Oc4cccc(Br)c4)ncnc3[nH]2)c1 [Compound D19]                   Kd        < 100 nM
2  COc1ccc(-c2cc3c(Sc4cccc(F)c4)ncnc3[nH]2)cc1 [Compound J8]                   Kd        < 100 nM
3  COc1cccc(-c2cc3c(Oc4cccc(C(F)(F)F)c4)ncnc3[nH]2)c1 [Compound D21]                   Kd  100 to 1000 nM
4  COc1cccc(-c2cc3c(Sc4ccc(F)cc4)ncnc3[nH]2)c1 [Compound J30]                   Kd        < 100 nM
5  Oc1ccc(-c2cc3c(Oc4cc(Cl)cc(Cl)c4)ncnc3[nH]2)cc1 [Compound E1]                   Kd  100 to 1000 nM
6  Clc1ccc(Sc2ncnc3c2[nH]c2ccccc23)cc1Cl [Compound K5]                   Kd        < 100 nM

Please find the next compound below.
Retrieve Kd measured for Cc1cc(C)cc(Sc2ncnc3[nH]c(-c4ccc(O)cc4)cc23)c1 [Compound J18] and print it.
100 to 1000 nM

src = patent US20050239806A1
